Listing of recorded % inhibition of SMAD7 mRNA expression by entry.
# System: human SMAD7 mRNA
# test_name: Antisense inhibition of human SMAD7 mRNA expression in Hep3B cells by 5-10-5 MOE gapmers, single concentration, electroporation, RT-PCR (Example 1, Study 1 and 2)
# Type: cell-based
# conditions: electroporation, 15,000 nM antisense oligonucleotide (Study 2), 5-10-5 MOE gapmers targeting SEQ ID NO: 1 and 2
Strand notation (5' to 3'): a small letter for the sugar, then the base; units joined by * are phosphorothioate-linked, units joined directly phosphodiester-linked; [ ] holds rarer units or linkages, { } end groups; capitals alone tell only the bases. e = 2'-O-(2-methoxyethyl) (MOE); [5mC] = 5-methylcytosine; d = 2'-deoxy (DNA)
quantity_kind: % inhibition of SMAD7 mRNA expression

# substance, readout_value
rows = [
    ("771714 (antisense eT*e[5mC]*eT*eG*eG*dA*d[5mC]*dT*dA*dA*dA*dG*d[5mC]*dT*dT*e[5mC]*e[5mC]*eA*e[5mC]*eG) [compound 771714]", "44%"),
    ("771481 (antisense eG*e[5mC]*eA*eG*eG*d[5mC]*dT*dG*dT*dA*d[5mC]*dG*d[5mC]*d[5mC]*dT*eT*e[5mC]*eT*e[5mC]*eG) [compound 771481]", "0%"),
    ("771373 (antisense eG*eA*eA*eA*eG*dA*d[5mC]*dA*dA*dA*d[5mC]*d[5mC]*dA*d[5mC]*dA*e[5mC]*eA*eT*eT*e[5mC]) [compound 771373]", "32%"),
]
